- Target System: human IgEλ (U266 derived) (human, UniProt P01854 1-546)
- Sequence (P01854 whole entry): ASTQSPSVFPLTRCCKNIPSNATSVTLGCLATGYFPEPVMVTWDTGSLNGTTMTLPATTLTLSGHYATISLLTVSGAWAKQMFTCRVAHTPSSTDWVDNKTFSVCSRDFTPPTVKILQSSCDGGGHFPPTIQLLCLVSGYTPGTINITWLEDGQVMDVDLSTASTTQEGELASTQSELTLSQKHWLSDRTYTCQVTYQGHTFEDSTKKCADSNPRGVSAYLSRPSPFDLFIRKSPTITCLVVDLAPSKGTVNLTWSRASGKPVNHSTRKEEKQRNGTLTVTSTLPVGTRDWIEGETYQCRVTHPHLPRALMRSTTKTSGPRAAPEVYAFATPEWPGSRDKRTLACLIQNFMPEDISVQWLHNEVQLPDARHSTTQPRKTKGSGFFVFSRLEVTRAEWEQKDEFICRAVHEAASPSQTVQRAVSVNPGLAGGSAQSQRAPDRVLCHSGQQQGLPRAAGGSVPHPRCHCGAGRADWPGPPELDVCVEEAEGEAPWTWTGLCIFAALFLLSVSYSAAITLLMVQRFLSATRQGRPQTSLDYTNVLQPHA
- Method Summary: HTRF receptor-ligand competition, scFv titrated; Eu-cryptate human IgE (U266) binding to human FcεRI-Fc; geomean
Measured Endpoint: pIC50
pIC50 field: float, defined as -log10 of concentration (mol/L).

Binder	pIC50
Antibody 16 (scFv) (scFv, V domains shown, purified scFv) VH: EVQLLESGGGLVQPGGSLRLSCAAPGFTFSSYAMSWVRQAPGKGLEWVSAISGGSGGRTYYADSVKGRFTISRDNSKNTLYLQMNSLRAEDTAVYYCARHIAVAGTRGFDYWGRGTLVTVSS VL: SYVLTQPPSVSVSPGQTASITCSGDKLGDTYASWYRQRSGQSPVLVIYQDDKRPSGIPERFSGSNSGNTATLTISGTHTMDEADYYCLAWDTRTSGAVFGGGTELTVL	8.00

-- ask Requested read-out: pIC50. Entry: Antibody 14 (scFv) (scFv, V domains shown, purified scFv) VH: EVQLLESGGGLVQPGGSLRLSCAAPGFTFSSYPMSWVRQAPGKGLEWVSAISGSGGSTYYADSVKGRFTISRDNSKNTLYLQMNSLRAEDTAVYYCARHIAVAGTRGFDYWGRGTLVTVSS VL: SFVLSQPPSVSVSPGQTASITCSGDKLGDTYASWYRQRSGQSPVLVIYQDDKRPSGIPERFSGSNSGNTATLTISGTHTMDEADYYCLAWDTRTSGAVFGGGTKLTVL
-- reply 8.15
